- system name: Cyclin-dependent kinase 1 (Homo sapiens);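 further: enzyme assay on the CDK1/cyclin B complex, reported as mean percent inhibition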
- protocol conditions: at 0.1 µM
metric: inhibition (%)
Lab book: enter the figure in %, no units written.

query_smiles=NS(=O)(=O)c1ccc(N/N=C2\C(=O)Nc3ccc(C(=O)NCCc4c[nH]cn4)cc32)cc1 system_name="Cyclin-dependent kinase 1 (Homo sapiens)" result_value=30.1

-- ask Which value of inhibition has been reported for Nc1nc(-c2ccccn2)c(-c2ccc3ncccc3n2)s1 in the records?
-- reply 0.79

-- ask Reported inhibition for COc1ccc(-c2nn3ncccc3c2-c2ccnc(Nc3ccc(Cl)c(C(F)(F)F)c3)n2)cc1 : what is it?
-- reply 0.45

-- ask Report inhibition for O=C1NC(=O)C(N2CCc3ccccc32)=C1c1ccc(Cl)cc1 please.
-- reply 1.77

-- ask Data request, read-out inhibition, for Cc1nnc(-c2ccc(C)c(-c3ccc(C(=O)Nc4cccc(C#N)c4)cc3)c2)o1
-- reply 0.88

-- ask Quick check: inhibition of [O-][S+]1CCN(Cc2ccc(-c3ccc4ncnc(Nc5ccc(OCc6ccccc6)c(F)c5)c4c3)o2)CC1 ?
-- reply 0.66

----------
molecules and their reported inhibition
- system name: Tyrosine-protein kinase CSK (Homo sapiens);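 further: each value is an averaged inhibition reading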
- protocol conditions: at 1 µM
Kindly provide the numeric value in % only, without the unit symbol.

Recorded results for 4 molecules are shown here.
molecule=CCn1c(-c2nonc2N)nc2ccncc21 metric=inhibition result_value=-5.08
molecule=COc1ccc(-c2ccncc2)cc1C(N)=O metric=inhibition result_value=2.12
molecule=CCn1c(-c2nonc2N)nc2cncc(C(=O)N3CCNCC3)c21 metric=inhibition result_value=4.45
molecule=NC(=O)c1cccc(Nc2nccc(Nc3cccc4[nH]ncc34)n2)c1 metric=inhibition result_value=26.5

-- ask Fill in: inhibition of CC1=C(C(=O)Nc2ccc3[nH]ncc3c2)C(c2ccc(Cl)c(Cl)c2)CC(=O)N1 (configuration not stated) is ___
-- reply 4.23

-- ask Please look up its inhibition: COc1cc2c(cc1Nc1nc(N3CCc4ccccc43)c3cc[nH]c3n1)N(C(=O)CN(C)C)CC2
-- reply 0.41

-- ask Report inhibition for O=C1Nc2ccc(C(=O)c3ccco3)cc2C1=Cc1cc(Cl)c(O)c(Cl)c1 please.
-- reply 7.85

----------
- system name: Aurora kinase A (Homo sapiens);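 further: values are mean percent inhibition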
- Sequence (whole entry): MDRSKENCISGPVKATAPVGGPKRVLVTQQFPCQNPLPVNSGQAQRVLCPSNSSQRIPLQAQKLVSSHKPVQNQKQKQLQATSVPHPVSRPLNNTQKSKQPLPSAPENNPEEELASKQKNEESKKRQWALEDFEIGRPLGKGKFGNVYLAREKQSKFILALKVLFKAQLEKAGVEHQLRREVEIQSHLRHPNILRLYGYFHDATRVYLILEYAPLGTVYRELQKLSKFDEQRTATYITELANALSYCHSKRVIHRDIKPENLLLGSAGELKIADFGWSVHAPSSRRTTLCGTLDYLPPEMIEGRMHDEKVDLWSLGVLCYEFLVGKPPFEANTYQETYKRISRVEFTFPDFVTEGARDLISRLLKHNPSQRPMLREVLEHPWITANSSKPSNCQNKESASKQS
- protocol conditions: at 1 µM
metric: inhibition (%)
The response must be a number in % with no trailing unit.

Use these answered entries as a reference point.
query_smiles=CCn1c(-c2nonc2N)nc2c(N3CCCC3)nccc21 result_value=2.53
query_smiles=O=C1NC(=O)C(c2ccc(Cl)cc2)=C1Nc1ccc(Cl)c(C(=O)O)c1 result_value=4.76
query_smiles=COc1cc(C=NNc2ncnc3c2cnn3-c2ccccc2)ccc1O result_value=94
query_smiles=Fc1cccc(COc2ccc(Nc3ncnc4cc(-c5ccc[nH]5)sc34)cc2Cl)c1 result_value=7.53

Turning to the following molecule.
-- ask What value of measured inhibition is listed for Cc1cccc(-c2n[nH]cc2-c2ccc3ncccc3n2)n1 ?
-- reply 2.37
